Here the recorded 96 h LC50 (-log10 mol/L) is given for each entry.
# Test system: Pimephales promelas
# measurement notes: 96 h LC50 (-log10 mol/L); higher = more toxic

Below are worked cases with known answers.
CC(Cl)CCl (stereo not drawn): 2.93
BrCCCBr: 5.05

For the molecule N#CCC#N , the measured 96 h LC50 (-log10 mol/L) on Pimephales promelas was 5.07

###

# Tested on: Tetrahymena pyriformis
# measurement notes: 48 h IGC50 (-log10 mol/L); higher = more toxic
Here the recorded 48 h IGC50 (-log10 mol/L) is given for each entry.
Reply with the value as a number alone.

O/N=C\c1ccccc1: 2.89

CC(C)(C)c1ccc(N)cc1 has a reported 48 h IGC50 (-log10 mol/L) of 3.36

Oc1c(Cl)c(Cl)c(O)c(Cl)c1Cl has a reported 48 h IGC50 (-log10 mol/L) of 5.11

OCCOc1cccc(O)c1 has a reported 48 h IGC50 (-log10 mol/L) of 2.13

O=Cc1cc(Br)cc(Br)c1O has a reported 48 h IGC50 (-log10 mol/L) of 4.65

COC(=O)CC(=O)OC has a reported 48 h IGC50 (-log10 mol/L) of 1.71

CCCCCOc1ccc(N)cc1 has a reported 48 h IGC50 (-log10 mol/L) of 3.97

CC(=O)C(C)=O has a reported 48 h IGC50 (-log10 mol/L) of 2.77

CC#CC(O)CC (stereo not given) has a reported 48 h IGC50 (-log10 mol/L) of 2.81

Oc1ccccc1Cc1ccccc1 has a reported 48 h IGC50 (-log10 mol/L) of 4.31

CCCCCl has a reported 48 h IGC50 (-log10 mol/L) of 2.09

O=C(Oc1ccccc1)c1ccc(O)cc1 has a reported 48 h IGC50 (-log10 mol/L) of 4.37

O=Cc1cc(I)cc(I)c1O has a reported 48 h IGC50 (-log10 mol/L) of 5.34

C=C(C)C(=O)OC has a reported 48 h IGC50 (-log10 mol/L) of 1.78

OCC(Br)CBr (stereo not given) has a reported 48 h IGC50 (-log10 mol/L) of 2.51

###

# System: Tetrahymena pyriformis
# measurement notes: 48 h IGC50 (-log10 mol/L); higher = more toxic
test readout: 48 h IGC50 (-log10 mol/L)
Reply with the value as a number alone.

C=C(C)OC(C)=O has a reported 48 h IGC50 (-log10 mol/L) of 2.51

CCCCCCCCN has a reported 48 h IGC50 (-log10 mol/L) of 3.35

CC(=O)N(C)C has a reported 48 h IGC50 (-log10 mol/L) of 1.05

Nc1cc(Cl)ccc1Cl has a reported 48 h IGC50 (-log10 mol/L) of 3.58

CCCCOC(C)=O has a reported 48 h IGC50 (-log10 mol/L) of 2.51

CCCCCCC(=O)OC has a reported 48 h IGC50 (-log10 mol/L) of 3.1

CCC(C)C(=O)OC (stereo unspecified) has a reported 48 h IGC50 (-log10 mol/L) of 1.83

CCCC(C)C=O (stereo unspecified) has a reported 48 h IGC50 (-log10 mol/L) of 2.53

CCCCCC has a reported 48 h IGC50 (-log10 mol/L) of 3.72

COc1cccc(O)c1 has a reported 48 h IGC50 (-log10 mol/L) of 2.67
